Would you mind telling me the reported EC50 of each entry?
target: Potassium voltage-gated channel subfamily KQT member 2 (Homo sapiens); test: Agonist activity at Kv7.2 (unknown origin) expressed in human HEK293 cells
Sequence (O43526 whole entry): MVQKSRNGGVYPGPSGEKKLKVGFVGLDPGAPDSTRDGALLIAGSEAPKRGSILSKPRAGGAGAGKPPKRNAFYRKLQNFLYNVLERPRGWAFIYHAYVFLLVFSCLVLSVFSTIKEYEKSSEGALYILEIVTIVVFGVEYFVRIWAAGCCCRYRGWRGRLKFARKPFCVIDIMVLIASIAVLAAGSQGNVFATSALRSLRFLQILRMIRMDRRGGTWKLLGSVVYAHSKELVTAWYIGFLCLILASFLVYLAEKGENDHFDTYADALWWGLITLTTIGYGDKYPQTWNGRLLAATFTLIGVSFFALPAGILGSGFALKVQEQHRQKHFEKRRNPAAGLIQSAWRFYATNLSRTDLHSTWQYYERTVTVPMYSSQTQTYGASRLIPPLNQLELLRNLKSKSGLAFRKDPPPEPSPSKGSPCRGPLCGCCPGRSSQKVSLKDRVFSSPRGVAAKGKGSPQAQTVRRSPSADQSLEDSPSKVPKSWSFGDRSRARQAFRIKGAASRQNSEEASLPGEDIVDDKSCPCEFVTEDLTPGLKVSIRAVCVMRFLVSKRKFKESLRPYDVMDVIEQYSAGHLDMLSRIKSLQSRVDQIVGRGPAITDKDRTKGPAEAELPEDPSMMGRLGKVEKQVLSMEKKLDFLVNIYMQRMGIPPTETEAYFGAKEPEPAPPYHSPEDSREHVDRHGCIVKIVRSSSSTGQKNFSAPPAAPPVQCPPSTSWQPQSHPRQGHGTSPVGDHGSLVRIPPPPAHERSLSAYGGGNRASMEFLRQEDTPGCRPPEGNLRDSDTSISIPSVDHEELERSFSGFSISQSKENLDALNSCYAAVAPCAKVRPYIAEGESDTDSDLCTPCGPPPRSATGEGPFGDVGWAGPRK
Unit nM implied. Number only.

## Input Looking for the measured EC50 of CCOC(=O)Nc1ccc(NCc2ccc(F)cc2)cc1N , can you help?
## Output 2040

## Input Looking for the measured EC50 of C#CCN(Cc1ccc(F)cc1)c1ccc(NC(=O)OCC)c(N)c1 , can you help?
## Output 990

---

biological target: Sodium channel protein type 8 subunit alpha (Homo sapiens, UniProt Q9UQD0); test: Inhibition of human Nav1.6 expressed in HEK293 cells by automated patch-clamp assay; type: cell-based
Sequence (Q9UQD0 whole entry): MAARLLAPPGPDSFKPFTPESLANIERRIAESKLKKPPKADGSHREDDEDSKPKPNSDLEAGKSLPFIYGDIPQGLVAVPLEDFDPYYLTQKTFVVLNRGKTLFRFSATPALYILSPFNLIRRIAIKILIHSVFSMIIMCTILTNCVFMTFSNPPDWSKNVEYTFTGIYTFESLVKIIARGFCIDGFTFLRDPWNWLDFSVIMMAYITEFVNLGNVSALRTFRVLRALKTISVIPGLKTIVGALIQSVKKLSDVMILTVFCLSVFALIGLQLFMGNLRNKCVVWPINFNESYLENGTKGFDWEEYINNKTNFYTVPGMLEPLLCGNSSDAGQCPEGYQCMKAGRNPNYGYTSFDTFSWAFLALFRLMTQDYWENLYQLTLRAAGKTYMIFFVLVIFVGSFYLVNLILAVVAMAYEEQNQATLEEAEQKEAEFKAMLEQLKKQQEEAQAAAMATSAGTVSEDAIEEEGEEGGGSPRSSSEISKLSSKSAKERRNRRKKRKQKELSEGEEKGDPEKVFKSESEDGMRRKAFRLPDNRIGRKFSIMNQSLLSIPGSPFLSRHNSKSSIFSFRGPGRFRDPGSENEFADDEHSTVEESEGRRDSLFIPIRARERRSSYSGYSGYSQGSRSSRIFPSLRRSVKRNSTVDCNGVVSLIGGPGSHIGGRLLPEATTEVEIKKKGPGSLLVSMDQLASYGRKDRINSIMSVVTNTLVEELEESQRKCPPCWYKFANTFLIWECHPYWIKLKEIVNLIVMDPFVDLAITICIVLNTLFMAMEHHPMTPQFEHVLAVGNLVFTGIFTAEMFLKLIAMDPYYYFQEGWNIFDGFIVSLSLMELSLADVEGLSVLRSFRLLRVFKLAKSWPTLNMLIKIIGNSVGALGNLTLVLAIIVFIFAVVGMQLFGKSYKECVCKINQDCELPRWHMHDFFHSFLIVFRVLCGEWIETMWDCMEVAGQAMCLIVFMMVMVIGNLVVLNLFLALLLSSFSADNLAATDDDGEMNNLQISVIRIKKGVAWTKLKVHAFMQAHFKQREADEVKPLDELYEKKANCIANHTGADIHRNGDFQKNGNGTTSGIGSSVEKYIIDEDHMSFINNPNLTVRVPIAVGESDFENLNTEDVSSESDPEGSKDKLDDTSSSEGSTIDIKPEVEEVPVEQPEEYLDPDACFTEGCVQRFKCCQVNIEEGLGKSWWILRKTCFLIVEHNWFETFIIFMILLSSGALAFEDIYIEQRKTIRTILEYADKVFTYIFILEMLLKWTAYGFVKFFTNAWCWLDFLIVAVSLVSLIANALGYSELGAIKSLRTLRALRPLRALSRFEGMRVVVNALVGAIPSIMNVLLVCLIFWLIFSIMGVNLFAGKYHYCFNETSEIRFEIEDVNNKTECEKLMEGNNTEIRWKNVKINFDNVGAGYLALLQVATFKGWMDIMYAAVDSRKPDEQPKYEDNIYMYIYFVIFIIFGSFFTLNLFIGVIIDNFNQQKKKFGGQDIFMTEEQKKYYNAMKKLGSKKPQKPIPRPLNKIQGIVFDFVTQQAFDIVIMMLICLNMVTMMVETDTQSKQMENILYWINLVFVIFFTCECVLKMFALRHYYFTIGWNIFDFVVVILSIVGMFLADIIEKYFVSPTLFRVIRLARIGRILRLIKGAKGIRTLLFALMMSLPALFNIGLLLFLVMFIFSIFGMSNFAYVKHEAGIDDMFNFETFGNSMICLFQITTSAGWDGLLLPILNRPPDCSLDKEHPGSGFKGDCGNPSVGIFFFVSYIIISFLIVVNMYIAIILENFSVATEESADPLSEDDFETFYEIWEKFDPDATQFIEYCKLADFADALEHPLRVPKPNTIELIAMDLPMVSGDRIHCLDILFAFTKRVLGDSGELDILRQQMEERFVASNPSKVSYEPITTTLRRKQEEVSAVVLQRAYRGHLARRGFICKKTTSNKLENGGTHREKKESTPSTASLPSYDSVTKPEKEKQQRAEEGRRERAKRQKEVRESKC
endpoint name: pIC50
Notebook: values listed as pIC50 are -log10 of the concentration (mol/L).

## Input Request - read-out pIC50 | tested on Sodium channel protein type 8 subunit alpha (Homo sapiens, UniProt Q9UQD0) | molecule Cc1cc(S(=O)(=O)Nc2cscn2)c(F)cc1N(C)[C@@H]1CCN(Cc2ccccc2)C1
## Output 7.29
